In this section we review reported pIC50 values for a set of molecules.
Molecular target: human EDG-2 (Homo sapiens, UniProt Q92633)
Construct: cDNA of the cloned human EDG-2 was introduced into pEFneo, which is an animal expression vector
Sequence (Q92633 whole entry): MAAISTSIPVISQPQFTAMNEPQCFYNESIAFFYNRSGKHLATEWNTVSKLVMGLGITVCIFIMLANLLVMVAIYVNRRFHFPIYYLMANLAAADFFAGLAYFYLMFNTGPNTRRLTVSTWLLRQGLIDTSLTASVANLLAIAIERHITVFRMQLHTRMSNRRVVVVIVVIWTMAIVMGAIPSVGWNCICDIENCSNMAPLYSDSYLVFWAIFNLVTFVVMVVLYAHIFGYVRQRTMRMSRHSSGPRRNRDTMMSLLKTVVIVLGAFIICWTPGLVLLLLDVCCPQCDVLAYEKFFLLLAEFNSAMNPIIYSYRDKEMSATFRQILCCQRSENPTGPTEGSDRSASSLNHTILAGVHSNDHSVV
Assay: Inhibitory activity on LPA-induced elevation of intracellular Ca2+ level
Details: 50% inhibition of elevation of intracellular Ca2+ level by LPA, human EDG-2/HepG2 cells, fura-2
pIC50: −log10 of the molar value.
quantity-kind: pIC50

| molecule | value-measured |
| --- | --- |
| Cc1noc(-c2cccc(CSCCC(=O)O)c2)c1NC(=O)OC(C)c1ccccc1Cl (centres unmarked) [Compound 159] | 5.52 |
| Cc1noc(-c2ccc(COCc3c(F)cccc3F)cc2)c1NC(=O)OC(C)c1ccccc1Cl (centres unmarked) [Compound 83] | 5.00 |

// provenance: patent US6964975B2
